The reported numbers originate from patent US20120202818A1.

target: Ret kinase (Homo sapiens, UniProt P07949); construct: purchased Millipore (KinaseProfiler service) and/or Reaction Biology Corp. (Kinase HotSpot service); experiment: Ret kinase assay (KinaseProfiler / Kinase HotSpot); assay type: biochemical; conditions: compound at 1 μM
Sequence (P07949 29-1114): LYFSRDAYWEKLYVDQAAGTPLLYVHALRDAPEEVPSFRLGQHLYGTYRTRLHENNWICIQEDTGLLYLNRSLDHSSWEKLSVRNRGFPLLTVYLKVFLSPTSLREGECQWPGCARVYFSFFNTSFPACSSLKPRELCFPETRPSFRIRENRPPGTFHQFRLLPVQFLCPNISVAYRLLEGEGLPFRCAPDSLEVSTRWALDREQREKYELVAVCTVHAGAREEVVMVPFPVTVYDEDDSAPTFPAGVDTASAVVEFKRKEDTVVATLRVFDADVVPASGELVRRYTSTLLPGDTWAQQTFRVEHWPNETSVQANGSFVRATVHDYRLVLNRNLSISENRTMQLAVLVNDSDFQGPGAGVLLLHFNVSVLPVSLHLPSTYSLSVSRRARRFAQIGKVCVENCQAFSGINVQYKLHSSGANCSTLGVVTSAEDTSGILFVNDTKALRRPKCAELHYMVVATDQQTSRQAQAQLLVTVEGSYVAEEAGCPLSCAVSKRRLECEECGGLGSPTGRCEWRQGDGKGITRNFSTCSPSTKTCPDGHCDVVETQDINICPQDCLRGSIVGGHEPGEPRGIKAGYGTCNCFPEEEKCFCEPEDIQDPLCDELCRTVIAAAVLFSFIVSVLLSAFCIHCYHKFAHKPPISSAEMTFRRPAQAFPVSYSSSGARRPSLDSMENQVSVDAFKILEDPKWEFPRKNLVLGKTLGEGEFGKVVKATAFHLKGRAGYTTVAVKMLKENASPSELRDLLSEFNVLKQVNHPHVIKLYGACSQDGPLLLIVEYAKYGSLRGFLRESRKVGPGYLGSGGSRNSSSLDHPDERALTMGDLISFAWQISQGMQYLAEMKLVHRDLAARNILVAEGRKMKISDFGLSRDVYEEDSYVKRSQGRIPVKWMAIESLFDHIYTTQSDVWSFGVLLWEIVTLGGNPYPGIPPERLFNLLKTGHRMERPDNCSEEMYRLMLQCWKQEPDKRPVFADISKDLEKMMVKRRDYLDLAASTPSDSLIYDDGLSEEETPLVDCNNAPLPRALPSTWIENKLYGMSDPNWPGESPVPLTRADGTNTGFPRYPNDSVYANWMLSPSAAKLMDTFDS
OBSERVABLE: inhibition at 1 µM

Input CCc1nc(Nc2ccc(NC(=O)Nc3ccccc3)cc2)nc(Nc2ncc(C)s2)n1 . Output inhibition at 1 µM: < 50%

Lookup result for CCc1nc(Nc2ccc(NC(=O)Nc3ccc(C(F)(F)F)cc3)cc2)nc(Nc2cc(C)[nH]n2)n1 ; measured inhibition at 1 µM: 50 to 90%

Reported inhibition at 1 µM ( CCc1nc(Nc2ccc(NC(=O)NC(C)C)cc2)nc(Nc2cc(C)n(C(=O)NC(C)C)n2)n1 ) = < 50%

====

Assignment: determine reported inhibition at 1 µM for the given compounds.
molecular target: TrkA Kinase (Homo sapiens, UniProt P04629); construct: purchased Millipore (KinaseProfiler service) and/or Reaction Biology Corp. (Kinase HotSpot service); assay: TrkA kinase assay (KinaseProfiler / Kinase HotSpot); assay type: biochemical; conditions: compound at 1 μM
Sequence (P04629 33-796): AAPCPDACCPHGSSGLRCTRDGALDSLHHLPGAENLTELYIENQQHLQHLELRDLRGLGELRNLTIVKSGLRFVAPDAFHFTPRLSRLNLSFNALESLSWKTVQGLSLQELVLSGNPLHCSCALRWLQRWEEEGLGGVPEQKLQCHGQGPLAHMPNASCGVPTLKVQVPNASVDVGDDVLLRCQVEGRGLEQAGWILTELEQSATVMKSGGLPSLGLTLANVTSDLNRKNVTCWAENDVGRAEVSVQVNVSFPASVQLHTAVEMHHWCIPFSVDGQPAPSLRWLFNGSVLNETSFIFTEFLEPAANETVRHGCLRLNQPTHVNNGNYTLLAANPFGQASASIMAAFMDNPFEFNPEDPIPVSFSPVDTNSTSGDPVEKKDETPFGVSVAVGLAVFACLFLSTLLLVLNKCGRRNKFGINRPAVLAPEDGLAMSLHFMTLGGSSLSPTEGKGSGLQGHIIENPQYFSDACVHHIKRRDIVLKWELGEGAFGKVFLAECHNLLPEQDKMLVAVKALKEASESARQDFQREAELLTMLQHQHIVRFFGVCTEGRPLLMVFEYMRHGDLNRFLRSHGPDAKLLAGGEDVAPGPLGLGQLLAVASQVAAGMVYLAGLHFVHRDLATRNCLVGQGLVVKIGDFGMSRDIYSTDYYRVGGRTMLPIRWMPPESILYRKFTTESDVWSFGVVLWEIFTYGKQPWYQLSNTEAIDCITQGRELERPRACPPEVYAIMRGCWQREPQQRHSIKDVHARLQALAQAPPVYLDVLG

// CCc1nc(Nc2ccc(NC(=O)NC(C)C)cc2)nc(Nc2cc(C)[nH]n2)n1 : inhibition at 1 µM value = < 50%

Sample CCc1nc(Nc2ccc(NC(=O)Nc3ccccc3C)cc2)nc(Nc2cc(C)[nH]n2)n1 ; inhibition at 1 µM observed: < 50%

Field inhibition at 1 µM (entry Cc1cnc(Nc2nc(Sc3cccc(N)c3)nc(N3CCN(C)CC3)n2)s1 ) reads 50 to 90%

Input CCc1nc(Nc2ccc(NC(=O)Nc3ccccc3)cc2)nc(Nc2ncc(C)s2)n1 . Output inhibition at 1 µM: < 50%

inhibition at 1 µM in this record for CCNC(=O)Nc1ccc(Nc2nc(CC)nc(Nc3cc(C)[nH]n3)n2)cc1 : < 50%

The value of inhibition at 1 µM measured for the compound CCc1nc(Nc2ccc(NC(=O)Nc3ccc(OC)cc3)cc2)nc(Nc2cc(C)[nH]n2)n1 turned out to be < 50%
